FYI, the data here is from ChEMBL document CHEMBL3988442.

Catalogue of Percent Effect readings, one per entry.
- Experimental target: Shiga toxin 2 (Escherichia coli O157:H7) (UniProt P09385+P09386)
- Assay remarks: E. coli 0.157:H7 Shiga Toxin SOP - stx2 screening assay
- Type: functional
- Set-up: scale not given: direction of the effect not stated beside the values
- Test conditions: 30 µM

Compound: O=C(Nc1ccccc1)c1nn(C2CCS(=O)(=O)C2)c2c1CCCC2 (centres undefined)
Experimental target: Shiga toxin 2 (Escherichia coli O157:H7) (UniProt P09385+P09386)
Result units: %
Percent Effect: 4.6

Compound: Cc1nc(-c2ccccc2)n(CC(=O)N(C(C)C)C(C)C)n1
Experimental target: Shiga toxin 2 (Escherichia coli O157:H7) (UniProt P09385+P09386)
Result units: %
Percent Effect: 23.2

Compound: CN(Cc1ccccc1)C(=O)c1nc(S(C)(=O)=O)n2ccccc12
Experimental target: Shiga toxin 2 (Escherichia coli O157:H7) (UniProt P09385+P09386)
Result units: %
Percent Effect: 20.9

Compound: CCc1nnc(CN2CCN(C(=O)c3ccccn3)CC2)o1
Experimental target: Shiga toxin 2 (Escherichia coli O157:H7) (UniProt P09385+P09386)
Result units: %
Percent Effect: 21.4

Compound: Cc1nc(C)n(CC2CCCN2Cc2cscn2)n1 (centres undefined)
Experimental target: Shiga toxin 2 (Escherichia coli O157:H7) (UniProt P09385+P09386)
Result units: %
Percent Effect: 24.1

Compound: COc1ccccc1OCc1cc(C(=O)N2CC=CC2C(C)C)n[nH]1 (centres undefined)
Experimental target: Shiga toxin 2 (Escherichia coli O157:H7) (UniProt P09385+P09386)
Result units: %
Percent Effect: 15.8

Compound: CC(C)(CNC(=O)OC(C)(C)C)NC(=O)C1CC(=O)N(C2CC2)C1 (centres undefined)
Experimental target: Shiga toxin 2 (Escherichia coli O157:H7) (UniProt P09385+P09386)
Result units: %
Percent Effect: -23.3

Compound: COC(=O)c1ccc(N2CCN(C(=O)c3cc(C)on3)C(C)C2)cc1 (centres undefined)
Experimental target: Shiga toxin 2 (Escherichia coli O157:H7) (UniProt P09385+P09386)
Result units: %
Percent Effect: 23.5

Compound: Cc1cc2ccccc2n1CCC(=O)NCc1ncc[nH]1
Experimental target: Shiga toxin 2 (Escherichia coli O157:H7) (UniProt P09385+P09386)
Result units: %
Percent Effect: 4.66

Compound: Cc1ccc(N2CCC3(CCN(C(N)=O)CC3)CC2)nn1
Experimental target: Shiga toxin 2 (Escherichia coli O157:H7) (UniProt P09385+P09386)
Result units: %
Percent Effect: -2.18

Compound: CN(Cc1ccncc1)C(=O)Nc1cnn(CC2CCCO2)c1 (centres undefined)
Experimental target: Shiga toxin 2 (Escherichia coli O157:H7) (UniProt P09385+P09386)
Result units: %
Percent Effect: -5.44

Compound: c1cc(CN2Cc3nnn(CC4CC4)c3C(COCC3CC3)C2)co1 (centres undefined)
Experimental target: Shiga toxin 2 (Escherichia coli O157:H7) (UniProt P09385+P09386)
Result units: %
Percent Effect: -2.53

Compound: O=C(c1cccs1)N1CC[C@H](O)[C@@H]1Cc1ccccc1
Experimental target: Shiga toxin 2 (Escherichia coli O157:H7) (UniProt P09385+P09386)
Result units: %
Percent Effect: -7.22

Compound: Cc1ccc([C@@H]2CN(C(=O)c3csc(C)n3)C[C@H]2NC(=O)C2CC2)cc1
Experimental target: Shiga toxin 2 (Escherichia coli O157:H7) (UniProt P09385+P09386)
Result units: %
Percent Effect: 15.2

Compound: Cc1occc1C(=O)N1CCC2(CCC2NC(=O)c2ccn(C)c2)CC1 (centres undefined)
Experimental target: Shiga toxin 2 (Escherichia coli O157:H7) (UniProt P09385+P09386)
Result units: %
Percent Effect: 13.8

Compound: O=C1[C@@H]2CCN(Cc3ccncc3)C[C@@H]2OCCN1c1ccccc1
Experimental target: Shiga toxin 2 (Escherichia coli O157:H7) (UniProt P09385+P09386)
Result units: %
Percent Effect: -5.4

Compound: c1ccc(-c2ncc(CNC3CCc4ncnn4C3)cn2)cc1 (centres undefined)
Experimental target: Shiga toxin 2 (Escherichia coli O157:H7) (UniProt P09385+P09386)
Result units: %
Percent Effect: 13.4

Compound: CCc1ccc(S(=O)(=O)Nc2cc(C(=O)O)c(F)cc2F)s1
Experimental target: Shiga toxin 2 (Escherichia coli O157:H7) (UniProt P09385+P09386)
Result units: %
Percent Effect: -16.1

Compound: CN(Cc1ccco1)C(=O)C1CSCN1C(=O)c1cccnc1 (centres undefined)
Experimental target: Shiga toxin 2 (Escherichia coli O157:H7) (UniProt P09385+P09386)
Result units: %
Percent Effect: 13.1

Compound: Cc1nnc(NCc2cccnc2N(C)C)c(C#N)c1C
Experimental target: Shiga toxin 2 (Escherichia coli O157:H7) (UniProt P09385+P09386)
Result units: %
Percent Effect: 0.124

Compound: CC(C)c1cc(NC(=O)CN2CCc3cncnc3C2)on1
Experimental target: Shiga toxin 2 (Escherichia coli O157:H7) (UniProt P09385+P09386)
Result units: %
Percent Effect: 5.67

Compound: CCOC(=O)C1CCN(Cc2csc(C(C)(C)C)n2)CC1
Experimental target: Shiga toxin 2 (Escherichia coli O157:H7) (UniProt P09385+P09386)
Result units: %
Percent Effect: -1.05

Compound: CCn1cc(CNC2CC(=O)N(CCc3cccc(Cl)c3)C2)cn1 (centres undefined)
Experimental target: Shiga toxin 2 (Escherichia coli O157:H7) (UniProt P09385+P09386)
Result units: %
Percent Effect: -2.75

Compound: COCCN1CCC(CNC(=O)c2cc(C)cc(C)c2)C1 (centres undefined)
Experimental target: Shiga toxin 2 (Escherichia coli O157:H7) (UniProt P09385+P09386)
Result units: %
Percent Effect: -3.77
